- system: E. coli CsgA (Escherichia coli, UniProt P28307)
- Construct: made in house; host or cells: E. coli NEB 3016 slyD::kan, pET11d
- Sequence (P28307 23-151): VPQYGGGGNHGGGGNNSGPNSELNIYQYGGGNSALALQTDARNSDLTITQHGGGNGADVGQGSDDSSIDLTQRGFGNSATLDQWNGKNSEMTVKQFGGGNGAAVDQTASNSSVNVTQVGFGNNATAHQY
- run description: In vitro ThioflavinT assay of CsgA aggregation (CsgA ThT Assay)
- Type: biochemical
- condition summary: read-out: CsgA ThT Assay (10 μM CsgA) % Control AUC at 1005 minutes, 100 μM, mean AUC as % of DMSO control; CsgA 10 μM, black plates; compound 100 μM; 1005 minutes
We label by threshold. Values of remaining activity at 100 µM strictly beneath 50% are condition met. Values of 50% and up are condition not met.

IN: Strictly below 50%: is that where remaining activity at 100 µM of CCCN1CC(C(=O)O)n2c(c(-c3cccc(C(F)(F)F)c3)c(Cc3cccc4ccccc34)cc2=O)S1(=O)=O (single isomer, unassigned) [Compound 016a] sits?
OUT: condition met

IN: Strictly below 50%: is that where remaining activity at 100 µM of O=C(c1nc(=O)n2c(c1-c1cccc(C(F)(F)F)c1)SCC2C(=O)O)c1cccc2ccccc12 (stereo not shown) sits?
OUT: condition met

IN: Strictly below 50%: is that where remaining activity at 100 µM of CN1CC(C(=O)O)n2c(c(-c3cccc(C(F)(F)F)c3)c(Cc3cccc4ccccc34)c(N3CCNCC3)c2=O)S1(=O)=O (stereo not shown) sits?
OUT: condition not met

IN: Strictly below 50%: is that where remaining activity at 100 µM of CCCN1CC(C(=O)O)n2c(c(-c3cccc(C(F)(F)F)c3)c(Cc3cccc4ccccc34)cc2=O)S1(=O)=O (racemic) [Compound 016] sits?
OUT: condition met

IN: Strictly below 50%: is that where remaining activity at 100 µM of CNC(=O)CCCN1CC(C(=O)O)n2c(c(-c3cccc(C(F)(F)F)c3)c(Cc3cccc4ccccc34)cc2=O)S1(=O)=O (stereo not shown) sits?
OUT: condition not met

IN: Strictly below 50%: is that where remaining activity at 100 µM of Cn1c(=O)c2c(nc(CCCCCN3CC(C(=O)O)n4c(c(-c5cccc(C(F)(F)F)c5)c(Cc5cccc6ccccc56)cc4=O)S3(=O)=O)n2C)n(C)c1=O (stereo not shown) sits?
OUT: condition not met

IN: Strictly below 50%: is that where remaining activity at 100 µM of CCCN1CC(C(=O)O)n2c(c(-c3cccc(C(F)(F)F)c3)c(Cc3cccc4ccccc34)c(NC3CCOCC3)c2=O)S1(=O)=O (stereo not shown) sits?
OUT: condition met

IN: Strictly below 50%: is that where remaining activity at 100 µM of Nc1c(Cc2cccc3ccccc23)c(-c2cccc(C(F)(F)F)c2)c2n(c1=O)C(C(=O)O)CNS2(=O)=O (stereo not shown) sits?
OUT: condition met

IN: Strictly below 50%: is that where remaining activity at 100 µM of Nc1c(Cc2cccc3ccccc23)c(-c2cccc(C(F)(F)F)c2)c2n(c1=O)C(C(=O)O)CN(C[C@@H](O)CO)S2(=O)=O (stereo partly shown) sits?
OUT: condition not met

IN: Strictly below 50%: is that where remaining activity at 100 µM of O=C(O)c1csc2c(-c3cccc(C(F)(F)F)c3)c(Cc3cccc4ccccc34)cc(=O)n12 sits?
OUT: condition not met

IN: Strictly below 50%: is that where remaining activity at 100 µM of O=C(O)C1CSc2c(-c3cccc(C(F)(F)F)c3)c(Cc3cccc4ccccc34)c(CO)c(=O)n21 (stereo not shown) sits?
OUT: condition met

IN: Strictly below 50%: is that where remaining activity at 100 µM of O=C(O)C1CSc2c(-c3cccc(C(F)(F)F)c3)c(C(F)(F)c3cccc4ccccc34)cc(=O)n21 (stereo not shown) sits?
OUT: condition not met

IN: Strictly below 50%: is that where remaining activity at 100 µM of NC(=O)CN1CC(C(=O)O)n2c(c(-c3cccc(C(F)(F)F)c3)c(Cc3cccc4ccccc34)cc2=O)S1(=O)=O (stereo not shown) sits?
OUT: condition met
